System Name: Bcl-2 G101V (Homo sapiens, UniProt P10415, G101V)
Test Protocol: Bcl-2 G101V inhibition, fluorescence polarization (Flu-BIM tracer) binding assay
Protocol Conditions: FP; 20 nM Bcl2, 5 nM Flu-BIM, 1 h incubation; read-out: Bcl-2 G101V (FP)
Property Label: pIC50
Scale: pIC50 equals -log10([C]), with [C] in mol/L.

Exercise: Tell me reported pIC50 for `CC(C)c1ccccc1-c1csc(C2=C(CN3CCN(c4ccc(C(=O)NS(=O)(=O)c5ccc(NC[C@H]6COCCO6)c([N+](=O)[O-])c5)c(Oc5cnc6[nH]ccc6c5)c4)CC3)CCC(C)(C)C2)c1` , tested with Bcl-2 G101V (Homo sapiens, UniProt P10415, G101V).
Solution: 7.44

Exercise: Tell me reported pIC50 for `CC1(C)CCC(CN2CCN(c3ccc(C(=O)NS(=O)(=O)c4ccc(NC[C@H]5CC[C@](C)(O)CC5)c([N+](=O)[O-])c4)c(Oc4cnc5[nH]ccc5c4)c3)CC2)=C(c2cc(-c3ccc(F)cc3)cs2)C1` , tested with Bcl-2 G101V (Homo sapiens, UniProt P10415, G101V).
Solution: 7.46

Exercise: Tell me reported pIC50 for CC1(C)CCC(CN2CCN(c3ccc(C(=O)NS(=O)(=O)c4ccc(NC[C@H]5CC[C@](C)(O)CC5)c([N+](=O)[O-])c4)c(Oc4cnc5[nH]ccc5c4)c3)CC2)=C(c2cc(-c3c(F)cc(C(C)(O)C4CC4)cc3F)cs2)C1 (stereo partly drawn) , tested with Bcl-2 G101V (Homo sapiens, UniProt P10415, G101V).
Solution: 7.54

###

System Name: Bcl-2 G101V (Homo sapiens, UniProt P10415, G101V)
Test Protocol: Bcl-2 G101V inhibition, fluorescence polarization (Flu-BIM tracer) binding assay
Protocol Conditions: FP; 20 nM Bcl2, 5 nM Flu-BIM, 1 h incubation; read-out: Bcl-2 G101V (FP)
Assign IC50 to each entry below.
Express the result in nM but write the number alone.

Exercise: Tell me reported IC50 for `CC1(C)CCC(CN2CCN(c3ccc(C(=O)NS(=O)(=O)c4ccc(NC[C@H]5COCCO5)c([N+](=O)[O-])c4)c(Oc4cnc5[nH]ccc5c4)c3)CC2)=C(c2cc(-c3ccc(C(F)(F)F)cc3)cs2)C1` , tested with Bcl-2 G101V (Homo sapiens, UniProt P10415, G101V).
Solution: 43.4

Exercise: Tell me reported IC50 for `CC1(C)CCC(CN2CCN(c3ccc(C(=O)NS(=O)(=O)c4ccc(NC[C@H]5COCCO5)c([N+](=O)[O-])c4)c(Oc4cnc5[nH]ccc5c4)c3)CC2)=C(c2cc(CN3CCN4CCOC[C@H]4C3)cs2)C1` , tested with Bcl-2 G101V (Homo sapiens, UniProt P10415, G101V).
Solution: 66

Exercise: Tell me reported IC50 for `CC1(C)CCC(CN2CCN(c3ccc(C(=O)NS(=O)(=O)c4ccc(NC[C@H]5COCCO5)c([N+](=O)[O-])c4)c(Oc4cnc5[nH]ccc5c4)c3)CC2)=C(c2cc(-c3ccc(F)cc3F)cs2)C1` , tested with Bcl-2 G101V (Homo sapiens, UniProt P10415, G101V).
Solution: 50.7

Exercise: Tell me reported IC50 for CC1(C)CCC(CN2CCN(c3ccc(C(=O)NS(=O)(=O)c4ccc(NC[C@H]5CC[C@](C)(O)CC5)c([N+](=O)[O-])c4)c(Oc4cnc5[nH]ccc5c4)c3)CC2)=C(c2cc(-c3ccc(C(C)(O)C(F)(F)F)cc3F)cs2)C1 (stereo partly shown) , tested with Bcl-2 G101V (Homo sapiens, UniProt P10415, G101V).
Solution: 33.2

Exercise: Tell me reported IC50 for `CC1(C)CCC(CN2CCN(c3ccc(C(=O)NS(=O)(=O)c4ccc(NC[C@H]5CC[C@](C)(O)CC5)c([N+](=O)[O-])c4)c(Oc4cnc5[nH]ccc5c4)c3)CC2)=C(c2cc(-c3ccc(F)c(F)c3)cs2)C1` , tested with Bcl-2 G101V (Homo sapiens, UniProt P10415, G101V).
Solution: 45.5

Exercise: Tell me reported IC50 for `CC1(C)CCC(CN2CCN(c3ccc(C(=O)NS(=O)(=O)c4ccc(NC[C@H]5COCCO5)c([N+](=O)[O-])c4)c(Oc4cnc5[nH]ccc5c4)c3)CC2)=C(c2cc(Nc3ncccn3)cs2)C1` , tested with Bcl-2 G101V (Homo sapiens, UniProt P10415, G101V).
Solution: 40.9

Exercise: Tell me reported IC50 for `CC1(C)CCC(CN2CCN(c3ccc(C(=O)NS(=O)(=O)c4ccc(NC[C@H]5CC[C@](C)(O)CC5)c([N+](=O)[O-])c4)c(Oc4cnc5[nH]ccc5c4)c3)CC2)=C(c2cc(-c3c(F)cc(C(C)(C)C(=O)O)cc3F)cs2)C1` , tested with Bcl-2 G101V (Homo sapiens, UniProt P10415, G101V).
Solution: 22.3

Exercise: Tell me reported IC50 for `CC1(C)CCC(CN2CCN(c3ccc(C(=O)NS(=O)(=O)c4ccc(NC[C@H]5CC[C@](C)(O)CC5)c([N+](=O)[O-])c4)c(Oc4cnc5[nH]ccc5c4)c3)CC2)=C(c2cc(-c3cc(F)c(F)c(F)c3)cs2)C1` , tested with Bcl-2 G101V (Homo sapiens, UniProt P10415, G101V).
Solution: 49

Exercise: Tell me reported IC50 for `CC1(C)CCC(CN2CCN(c3ccc(C(=O)NS(=O)(=O)c4ccc(NC[C@H]5CC[C@](C)(O)CC5)c([N+](=O)[O-])c4)c(Oc4cnc5[nH]ccc5c4)c3)CC2)=C(c2cc(-c3c(F)cc(C(C)(C)O)cc3F)cs2)C1` , tested with Bcl-2 G101V (Homo sapiens, UniProt P10415, G101V).
Solution: 32.3

Exercise: Tell me reported IC50 for `CC1(C)CCC(CN2CCN(c3ccc(C(=O)NS(=O)(=O)c4ccc(NCC5CCOCC5)c([N+](=O)[O-])c4)c(Oc4cnc5[nH]ccc5c4)c3)CC2)=C(c2ccsc2-c2ccccc2)C1` , tested with Bcl-2 G101V (Homo sapiens, UniProt P10415, G101V).
Solution: 47.6

Exercise: Tell me reported IC50 for `Cc1sccc1C1=C(CN2CCN(c3ccc(C(=O)NS(=O)(=O)c4ccc(NCC5CCOCC5)c([N+](=O)[O-])c4)c(Oc4cnc5[nH]ccc5c4)c3)CC2)CCC(C)(C)C1` , tested with Bcl-2 G101V (Homo sapiens, UniProt P10415, G101V).
Solution: 32.7

Exercise: Tell me reported IC50 for `CC1(C)CCC(CN2CCN(c3ccc(C(=O)NS(=O)(=O)c4ccc(NC[C@H]5COCCO5)c([N+](=O)[O-])c4)c(Oc4cnc5[nH]ccc5c4)c3)CC2)=C(c2cc(CN3CCC(F)(F)CC3)cs2)C1` , tested with Bcl-2 G101V (Homo sapiens, UniProt P10415, G101V).
Solution: 25.7

Exercise: Tell me reported IC50 for `Cc1cscc1C1=C(CN2CCN(c3ccc(C(=O)NS(=O)(=O)c4ccc(NCC5CCOCC5)c([N+](=O)[O-])c4)c(Oc4cnc5[nH]ccc5c4)c3)CC2)CCC(C)(C)C1` , tested with Bcl-2 G101V (Homo sapiens, UniProt P10415, G101V).
Solution: 32.6
